All figures here come from patent US12599590B2.

test description: Canine pharmacokinetics of enteric coated formulations at 0.15 mg/kg (T1) and 0.75 mg/kg (T5)
Assay type: in vivo
assay setup: dog, blood, po, 0.75 mg/kg, dogs, oral enteric coated formulation, T5 0.75 mg/kg, Arith. Mean
observable: half-life (h)
Write it as a number; the unit h goes unstated.

Query :: Any idea what half-life was measured for CO[C@H]1C[C@@H]2CC[C@@H](C)[C@@](O)(O2)C(=O)C(=O)N2CCCC[C@H]2C(=O)O[C@H]([C@H](C)C[C@@H]2CC[C@@H](O)[C@H](OC)C2)CC(=O)[C@H](C)/C=C(\C)[C@@H](O)[C@@H](OC)C(=O)[C@H](C)C[C@H](C)/C=C/C=C/C=C/1C ?
Result :: 20.2

----------
test description: Canine pharmacokinetics of enteric coated formulations at 0.15 mg/kg (T1) and 0.75 mg/kg (T5)
Format: in vivo
assay setup: dog, blood, po, 0.75 mg/kg, dogs, oral enteric coated formulation, T5 0.75 mg/kg, Median
observable: half-life

Query :: Any idea what half-life was measured for CO[C@H]1C[C@@H]2CC[C@@H](C)[C@@](O)(O2)C(=O)C(=O)N2CCCC[C@H]2C(=O)O[C@H]([C@H](C)C[C@@H]2CC[C@@H](O)[C@H](OC)C2)CC(=O)[C@H](C)/C=C(\C)[C@@H](O)[C@@H](OC)C(=O)[C@H](C)C[C@H](C)/C=C/C=C/C=C/1C ?
Result :: 20.5 h

----------
test description: Feline repeat dose toxicokinetic study of oral enteric-coated formulations
Format: in vivo
assay setup: whole blood, 0.75 mg/kg, cats, oral enteric-coated formulation, 0.75 mg/kg three times a week, Day 26, whole blood, Mean, read-out: AUC0-72
observable: AUC(0-t) (ng·h/mL)
Write it as a number; the unit ng·h/mL goes unstated.

Query :: Any idea what AUC(0-t) was measured for CO[C@H]1C[C@@H]2CC[C@@H](C)[C@@](O)(O2)C(=O)C(=O)N2CCCC[C@H]2C(=O)O[C@H]([C@H](C)C[C@@H]2CC[C@@H](O)[C@H](OC)C2)CC(=O)[C@H](C)/C=C(\C)[C@@H](O)[C@@H](OC)C(=O)[C@H](C)C[C@H](C)/C=C/C=C/C=C/1C ?
Result :: 248

----------
test description: Canine pharmacokinetics of enteric coated formulations at 0.15 mg/kg (T1) and 0.75 mg/kg (T5)
Format: in vivo
assay setup: dog, blood, po, 0.15 mg/kg, dogs, oral enteric coated formulation, T1 0.15 mg/kg, Median
observable: AUC(0-inf)
Answer with the number, then the unit.

Query :: Any idea what AUC(0-inf) was measured for CO[C@H]1C[C@@H]2CC[C@@H](C)[C@@](O)(O2)C(=O)C(=O)N2CCCC[C@H]2C(=O)O[C@H]([C@H](C)C[C@@H]2CC[C@@H](O)[C@H](OC)C2)CC(=O)[C@H](C)/C=C(\C)[C@@H](O)[C@@H](OC)C(=O)[C@H](C)C[C@H](C)/C=C/C=C/C=C/1C ?
Result :: 38.5 ng·h/mL

----------
test description: Feline repeat dose toxicokinetic study of oral enteric-coated formulations
Format: in vivo
assay setup: whole blood, 0.75 mg/kg, cats, oral enteric-coated formulation, 0.75 mg/kg, Day 0, whole blood, Mean
observable: Cmax (ng/mL)
Write it as a number; the unit ng/mL goes unstated.

Query :: Any idea what Cmax was measured for CO[C@H]1C[C@@H]2CC[C@@H](C)[C@@](O)(O2)C(=O)C(=O)N2CCCC[C@H]2C(=O)O[C@H]([C@H](C)C[C@@H]2CC[C@@H](O)[C@H](OC)C2)CC(=O)[C@H](C)/C=C(\C)[C@@H](O)[C@@H](OC)C(=O)[C@H](C)C[C@H](C)/C=C/C=C/C=C/1C ?
Result :: 7.56
